System: MCF7 breast
Assay: NCI-60 one-dose screen, 48 h
Conditions: 10 µM
This is part of a sample that, as a whole, favours compounds with a hit. Of some 83,000 tested, about 20% had one in any assay. Calls of active or inactive are those of the source. Rule for the calls: active = growth percent below 10; inactive = the rest.
# valid calls are active, inactive; nothing else

Solved entries:
* Cc1ccc(S(=O)(=O)c2c(COC(=O)c3cccc(C)c3)c(-c3ccccc3)nn2C)cc1 | active
* C[C@@H](C(=O)NCCCC#Cc1cnc(Nc2ccc(C#N)cc2)nc1NC1CC1)N(C)C(=O)/C=C/CN(C)C | inactive
* COc1cccc(C2=NN3C(C2)c2ccccc2OC3c2ccc(/C=C3\SC(=O)NC3=O)cc2)c1 (stereo not given) | inactive

[Q] Hi, do you know how CC(=O)SC1CC(=O)C=C2CCC3C4CCC(=O)OC4(C)CCC3C21C (stereo not given) came out in this test?
[A] inactive

[Q] Returns: the outcome recorded for CN1C(=O)N(C)C2Nn3c(s/c(=C\c4ccc(Cl)cc4Cl)c3=O)=NC21 (stereo not given) in this assay.
[A] inactive
